# tgt: T1, orthogonal hCD122 receptor (hoRb), hCD122 with H133D and Y134F (human, UniProt P14784 27-550)
# T1 sequence: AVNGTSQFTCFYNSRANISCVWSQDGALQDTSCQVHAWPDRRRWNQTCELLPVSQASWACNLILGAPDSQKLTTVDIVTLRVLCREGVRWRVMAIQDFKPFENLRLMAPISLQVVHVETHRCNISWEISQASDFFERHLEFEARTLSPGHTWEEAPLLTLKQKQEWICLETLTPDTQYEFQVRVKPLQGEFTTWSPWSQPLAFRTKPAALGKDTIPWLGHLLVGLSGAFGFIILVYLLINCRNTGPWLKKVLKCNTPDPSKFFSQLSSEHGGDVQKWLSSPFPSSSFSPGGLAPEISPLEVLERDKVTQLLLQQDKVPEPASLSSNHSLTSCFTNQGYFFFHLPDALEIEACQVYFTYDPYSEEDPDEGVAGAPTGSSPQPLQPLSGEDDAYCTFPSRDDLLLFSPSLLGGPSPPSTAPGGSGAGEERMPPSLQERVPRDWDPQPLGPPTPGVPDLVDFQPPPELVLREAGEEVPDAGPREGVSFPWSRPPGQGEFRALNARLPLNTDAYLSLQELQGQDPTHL
# assayExplanation: cell-based or functional assay
assayMetric: Relative Proliferation Fold Change NKL 1:10 (fold)

Use these answered entries as a reference point.
R38G, SQVLKA (ligand) APTSSSTKKTQLQLSQLLVLLKAILNGINNYKNPKLTGMLTFKFYMPKKATELKHLQCLEEELKPLEEVLNLAQSKNFHLRPRDLISNINVIVLELKGSETTFMCEYADETATIVEFLNRWITFCQSIISTLT    1.19
Q126I, SQVLKA (ligand) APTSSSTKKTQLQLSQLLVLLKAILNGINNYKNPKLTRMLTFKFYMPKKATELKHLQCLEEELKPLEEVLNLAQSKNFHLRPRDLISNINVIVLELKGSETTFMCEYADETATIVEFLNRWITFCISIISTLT    2.5
L18W, SQVLKA (ligand) APTSSSTKKTQLQLSQLWVLLKAILNGINNYKNPKLTRMLTFKFYMPKKATELKHLQCLEEELKPLEEVLNLAQSKNFHLRPRDLISNINVIVLELKGSETTFMCEYADETATIVEFLNRWITFCQSIISTLT    1.1
N88Q, SQVLKA (ligand) APTSSSTKKTQLQLSQLLVLLKAILNGINNYKNPKLTRMLTFKFYMPKKATELKHLQCLEEELKPLEEVLNLAQSKNFHLRPRDLISQINVIVLELKGSETTFMCEYADETATIVEFLNRWITFCQSIISTLT    0.53
I86V, SQVLKA (ligand) APTSSSTKKTQLQLSQLLVLLKAILNGINNYKNPKLTRMLTFKFYMPKKATELKHLQCLEEELKPLEEVLNLAQSKNFHLRPRDLVSNINVIVLELKGSETTFMCEYADETATIVEFLNRWITFCQSIISTLT    2.67

P: L18T, SQVLKA (ligand) APTSSSTKKTQLQLSQLTVLLKAILNGINNYKNPKLTRMLTFKFYMPKKATELKHLQCLEEELKPLEEVLNLAQSKNFHLRPRDLISNINVIVLELKGSETTFMCEYADETATIVEFLNRWITFCQSIISTLT
Q: Q126T, SQVLKA (ligand) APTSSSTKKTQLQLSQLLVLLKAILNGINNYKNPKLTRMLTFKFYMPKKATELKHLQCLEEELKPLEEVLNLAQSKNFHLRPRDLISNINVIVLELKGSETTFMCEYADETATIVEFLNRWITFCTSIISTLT
Q: Please let me know which one, P or Q , has a lower measured Relative Proliferation Fold Change NKL 1:10 value. Identify your pick by its label.
A: Q
(Q: 0.47 fold, P: 1.49 fold)

A: T3G, SQVLKA (ligand) APGSSSTKKTQLQLSQLLVLLKAILNGINNYKNPKLTRMLTFKFYMPKKATELKHLQCLEEELKPLEEVLNLAQSKNFHLRPRDLISNINVIVLELKGSETTFMCEYADETATIVEFLNRWITFCQSIISTLT
B: I92F, SQVLKA (ligand) APTSSSTKKTQLQLSQLLVLLKAILNGINNYKNPKLTRMLTFKFYMPKKATELKHLQCLEEELKPLEEVLNLAQSKNFHLRPRDLISNINVFVLELKGSETTFMCEYADETATIVEFLNRWITFCQSIISTLT
Q: Out of A and B , name the one with the higher Relative Proliferation Fold Change NKL 1:10. Identify your pick by its label.
A: A
(A: 3.76 fold, B: 1.84 fold)

Values from patent US20210196796A1
